- Tested on: FXR:RXRa (NR concentration 270 nM, RXRa partner concentration 90 nM)
- experimental_details: PBM binding z-score (relative to random genomic background probes); higher = stronger binding; sequences stand for … in GC…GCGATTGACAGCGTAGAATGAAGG
Is PBM binding z-score at least 0.08? Then label 1. If not, label 0.

Threshold query (PBM binding z-score >= 0.08) on CCTACTGGGCCAAGGACATTGATCAGTCAAAGCA label 0

// query: CCTGCTATGTCATGGTCAGCTAATCTACAGTATG label 1

What do you have for TAGCCTAGGACAGATCGGGCCAGTATACGCTATA ? label 0

Thanks! And ATCGAAAGGTCGAAGATGAGTATACCCACCCGAA ? label 1

Note, next up: TAGCCTAGGTCATGCGGGCCGGTATAGTGTCGGC label 1

Another: AGAACGAGGGCACGCTGAGTTGAAAGCAGAGTAG label 1

Also TCGAGTCGGTTAGGGGCATTCAGAATGGCGTCGA , if possible. label 1

Now the sequence CCTGCTAGGCCAATGGTCAGCTAAAGCAGCTCGC label 0

Similarly, TCTGGTTGGTCAAAGGTCACACACTCGAAATGCG ? label 1

// next record ACTAGCAGGCCAAGGGTCACCCAAGATTAGTCCG label 1

Then this sequence: GATACAGGGTCAGCTAGAGGCCAGAGCATGGAAA label 1

How about TAGCCTAGGTCGGATCGGGCCAGTATACGCTATA ? label 0

###

- Test system: THRa homodimer (NR concentration 90 nM)
- experimental_details: PBM binding z-score (relative to random genomic background probes); higher = stronger binding; sequences stand for … in GC…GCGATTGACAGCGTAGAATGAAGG
property_name: PBM binding z-score

API: value(readout=PBM binding z-score, system=THRa homodimer (NR concentration 90 nM)) for record ACAGACAGGTGAGTGAAGGTAACACAGCTGGACG -0.183

Ok, now AGATGTAGGTTAAGGGTCATTCAGGTTGGTTCGC 2.06

Note, next up: TGAATGAGCTTATAAGATCAGGGAACGTTGCAAA -1.18

Try this sequence too: CCTACTGGGCCAGGGTCATTGATCAGTCAAAGCA 0.841

For TCTTGTAGATCACTAGAGGTTAAGAAAGTGCGCT then? -0.317

What do you get for ATATGTAGGGTACATCCGGGTCATTCAGGCTATG ? 2.45

###

- Tested on: RXRa homodimer (NR concentration 180 nM)
- experimental_details: PBM binding z-score (relative to random genomic background probes); higher = stronger binding; sequences stand for … in GC…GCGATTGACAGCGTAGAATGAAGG
Cut-off 3 on PBM binding z-score, inclusive. At or above means satisfied; below means not satisfied.

Determine whether measured PBM binding z-score meets or exceeds 3 for CCTACTGGGGCATTCAGAGGTCATTGATCATATG satisfied

Cool, now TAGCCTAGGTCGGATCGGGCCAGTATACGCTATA not satisfied

Then ATAAGTAGGTTAAGGGTCATTCAGGTTGGTTCGC ? satisfied

Please give the result for TCTAGTTGGTCACGGAGGTCACACAGGACGGGTA too. satisfied

Same read-out for ATATGTAGGTTTAGGGTCATTCAGGTTGGTTCGC ? satisfied

Try this sequence too: CGAACTAGGTCAGAACAGGACAGTGAGGGATGAT not satisfied

Repeat for the following sequence: CGAACTAGGTCAAGGACAGTCAATCTCCGCACGC not satisfied

Can you check GCTGCTAGGTCAACTGATGGTCAGCCAAAGCTCG next? not satisfied

Try CCAGACAGGAGAAAGGTAACTCAGTCTGGTACGC next. not satisfied

Continue with CCTACTGGGGCAAGGTTACCATAACGCACAGCCA not satisfied

Also check CCATACGGGTCACTGACAGGTTATAGCATTTGGA satisfied

Also need CAGCCGAGGTCAGGGCCAGTATAGGAGGAACGTT , thanks. satisfied

Measured values drawn from the supplement of paper PMC6555819 for this set.
